Target: T1, MHC class I molecule A*0201 (biotin (bound to streptavidin-coated plate))
T1 construct: also called A2; HLA-A2
Assay: iTopia iScore
With a cut-off of 0.05, any iScore strictly below it is called yes; any iScore meeting it or above is called no.

Reference set (4 entries):
LSPFAFSGS [5T4 9-mer peptide 79 LSPFAFSGS] :: no
VSAPSPLVE [5T4 9-mer peptide 85 VSAPSPLVE] :: yes
AFEHLPSLR [5T4 9-mer peptide 69 AFEHLPSLR] :: yes
QPPLPDQCP [5T4 9-mer peptide 28 QPPLPDQCP] :: yes

Does the reported iScore of DGRLRLARL [5T4 9-mer peptide 7 DGRLRLARL] stay below 0.05? yes

Report whether reported iScore is lower than 0.05 (strictly) for SGSNASVSA [5T4 9-mer peptide 82 SGSNASVSA] yes

Dear reviewer, please state whether VLAQLPSLR [5T4 9-mer peptide 115 VLAQLPSLR] has iScore strictly beneath 0.05. no

Hello, I'm reviewing records and need to know if iScore of PPLAELAAL [5T4 9-mer peptide 58 PPLAELAAL] is below 0.05. Could you check? no
